Hello, the source for this data is patent US20100261753A1, in case you need it.

- experiment_summary: Rat pharmacokinetics
- Format: in vivo, Sprague-Dawley rats
- assay_setup: male, Sprague-Dawley, plasma, PO, 100 mg/kg free base
observed_property: Cmax (ng/mL)
Give bare numbers, in ng/mL.

Request the reported Cmax associated with O[C@@H]1CNCC(CF)[C@H]1O (stereo in doubt)
9390

---

- experiment_summary: Compound concentration in brain, spleen and plasma samples of the GCase enhancement study
- Type: in vivo, mice (C57BL/6)
- assay_setup: male, C57BL/6, mouse, po; spleen; 100 mg/kg p.o., nine doses, 24-hour washout; Table 3B
observed_property: concentration at 24 h (nM)
One number for each entry, in nM.

Request the reported concentration at 24 h associated with O[C@@H]1CNCC(CF)[C@H]1O (stereo in doubt)
304

---

- system: GCase (Homo sapiens, UniProt P04062)
- Sequence (P04062 40-536): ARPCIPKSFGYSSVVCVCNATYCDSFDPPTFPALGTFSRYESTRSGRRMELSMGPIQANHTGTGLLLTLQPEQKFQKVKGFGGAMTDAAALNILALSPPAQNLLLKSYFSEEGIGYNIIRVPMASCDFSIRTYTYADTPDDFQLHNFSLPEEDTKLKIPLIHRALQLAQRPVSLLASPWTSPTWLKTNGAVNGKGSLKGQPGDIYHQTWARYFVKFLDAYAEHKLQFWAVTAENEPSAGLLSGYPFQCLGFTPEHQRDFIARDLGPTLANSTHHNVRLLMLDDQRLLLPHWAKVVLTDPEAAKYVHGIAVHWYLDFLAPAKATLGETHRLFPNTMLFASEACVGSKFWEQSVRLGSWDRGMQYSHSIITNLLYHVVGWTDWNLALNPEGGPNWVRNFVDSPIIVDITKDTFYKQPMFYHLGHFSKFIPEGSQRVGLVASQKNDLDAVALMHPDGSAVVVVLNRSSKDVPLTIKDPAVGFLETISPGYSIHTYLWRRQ
- experiment_summary: GCase activity enhancement (EC50, Emax; Table 2B)
observed_property: EC50 (nM)
Give bare numbers, in nM.

Request the reported EC50 associated with O[C@@H]1[C@@H](CCl)CNC[C@H]1O [Compound B]
9.6

---

- experiment_summary: Rat pharmacokinetics
- Assay type: in vivo, Sprague-Dawley rats
- assay_setup: male, Sprague-Dawley, plasma, IV, 3 mg/kg free base
- Procedure: Pharmacokinetic (PK) data was obtained in rats to assess the bioavailability of test compound. In particular, the following PK parameters were calculated: bioavailability as measured by area under the Concentration/Time curve (AUC), fraction of dose available (% F; further defined below), clearance (CL), volume of distribution (Vd), and half-life (t½). […] Plasma samples were analyzed for compound levels by LC-MS/MS at PPD. […]
observed_property: Vd (L/kg)
Numbers only, in L/kg.

Request the reported Vd associated with O[C@@H]1CNCC(CF)[C@H]1O (stereo in doubt) [Compound A]
3.48

---

- experiment_summary: Compound concentration in brain, spleen and plasma samples of the GCase enhancement study
- Format: in vivo, mice (C57BL/6)
- assay_setup: male, C57BL/6, mouse, po; plasma; 100 mg/kg p.o., nine doses, 24-hour washout; Table 4C
observed_property: concentration at 24 h (nM)
One number for each entry, in nM.

Request the reported concentration at 24 h associated with O[C@@H]1[C@@H](CCl)CNC[C@H]1O
1530
